// provenance: paper PMC6593727

- testedSystem: CYP2D6 (Homo sapiens, UniProt P10635)
- Sequence (P10635 whole entry): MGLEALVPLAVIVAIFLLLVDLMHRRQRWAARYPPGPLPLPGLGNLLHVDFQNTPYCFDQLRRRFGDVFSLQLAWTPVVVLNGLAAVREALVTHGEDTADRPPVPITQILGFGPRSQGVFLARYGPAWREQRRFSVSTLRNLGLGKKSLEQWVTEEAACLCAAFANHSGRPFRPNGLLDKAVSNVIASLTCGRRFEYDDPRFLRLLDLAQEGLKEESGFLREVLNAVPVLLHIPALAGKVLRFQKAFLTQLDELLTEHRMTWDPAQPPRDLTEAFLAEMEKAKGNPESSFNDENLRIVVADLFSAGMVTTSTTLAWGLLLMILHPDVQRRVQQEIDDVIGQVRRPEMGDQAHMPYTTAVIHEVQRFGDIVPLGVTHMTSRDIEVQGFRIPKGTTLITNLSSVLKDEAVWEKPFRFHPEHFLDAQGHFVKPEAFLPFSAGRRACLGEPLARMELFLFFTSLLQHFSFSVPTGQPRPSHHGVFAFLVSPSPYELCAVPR
- testSettings: female, human, plasma, oral, Cmax, cocktail alone (day 1); mean ± SD
endpoint: Cmax (ng/mL)
Report as a plain number; the unit ng/mL is understood.

compound: CN1CC[C@@]23CCCC[C@@H]2[C@@H]1Cc1ccc(O)cc13 [Dextrorphan, dextrorphan]
Cmax, ng/mL: 490

Kindly review the next compound as well.
Task: What value of measured Cmax is listed for COc1ccc2c(c1)[C@]13CCCC[C@@H]1[C@H](C2)N(C)CC3 [Dextromethorphan, dextromethorphan, reference compound] ?
Output: 1.3

====

- testedSystem: CYP2C9 (Homo sapiens, UniProt P11712)
- Sequence (P11712 whole entry): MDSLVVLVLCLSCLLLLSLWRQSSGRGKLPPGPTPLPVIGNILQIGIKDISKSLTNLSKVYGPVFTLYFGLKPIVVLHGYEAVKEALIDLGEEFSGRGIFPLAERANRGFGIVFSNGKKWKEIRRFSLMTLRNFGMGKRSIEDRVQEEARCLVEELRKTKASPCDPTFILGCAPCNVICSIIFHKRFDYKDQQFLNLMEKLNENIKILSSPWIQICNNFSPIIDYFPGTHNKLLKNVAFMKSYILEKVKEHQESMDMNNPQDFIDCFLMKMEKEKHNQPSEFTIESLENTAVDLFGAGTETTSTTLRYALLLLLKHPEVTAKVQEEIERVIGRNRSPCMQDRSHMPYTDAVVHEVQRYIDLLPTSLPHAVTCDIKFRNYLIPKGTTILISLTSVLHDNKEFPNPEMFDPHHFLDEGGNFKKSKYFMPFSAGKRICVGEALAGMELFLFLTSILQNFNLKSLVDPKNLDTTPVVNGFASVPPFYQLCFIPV
endpoint: pKi
// scale note: pKi = -log10(conc_M); give the bare number

Task: Query the reported pKi for CYP2C9 (Homo sapiens, UniProt P11712); item: O=C(Nc1ccccc1)C1CCN(C(=O)Oc2cccnc2)CC1 [ASP8477]
Output: 5.10
